target: IFN-gamma (Homo sapiens, UniProt P01579 P01579:24-161); assay: filter; biphasic 2.7/103 nM; conditions: tags: Genzyme (Cambridge MA); Upstate Biotechnology for early SELEX rounds; chain copies: 2 inferred
Sequence (P01579 24-161, one chain of several): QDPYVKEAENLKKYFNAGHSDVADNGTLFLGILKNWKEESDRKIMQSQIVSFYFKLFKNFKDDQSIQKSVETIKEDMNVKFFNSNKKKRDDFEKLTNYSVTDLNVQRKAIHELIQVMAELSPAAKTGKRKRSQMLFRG
Measurement Type: Kd

| Binder | Value Measured |
| --- | --- |
| IFN-gamma 2'NH2-30 (ssRNA, 2'-NH2 all C and U) RNA: GGGAGGACGAUGCGGCAGGUAAUUACAUGAAGGUGGGUUAGGUACUUUCAGGGUCAGACGACUCGCCCGA | 2.7 nM |

All values here come from patent US5972599.
